System: OVCAR-8 (Ovarian Carcinoma)
Experiment: combination Emax (second highest fraction inhibited in the dose matrix, 72 h); higher = more inhibition; extreme values may be limits of the assay
Quick reference for combination Emax among some molecules

For reference, reported combination Emax for CC1(C)CCC(CN2CCN(c3ccc(C(=O)NS(=O)(=O)c4ccc(NCC5CCOCC5)c([N+](=O)[O-])c4)c(Oc4cnc5[nH]ccc5c4)c3)CC2)=C(c2ccc(Cl)cc2)C1 [Venetoclax] + CCN(CCO)CCCOc1ccc2c(Nc3cc(CC(=O)Nc4cccc(F)c4)[nH]n3)ncnc2c1 [AZD2811] (first compound max 1 µM, 7x7, partner max 1 µM) stands at 0.298

For reference, reported combination Emax for CN(C)CCCOc1ccc(-c2ccc3ncc4c(c3c2)n(C2CCOCC2)c(=O)n4C)cn1 [AZD0156] + O=C(c1cc(Cc2n[nH]c(=O)c3ccccc23)ccc1F)N1CCN(C(=O)C2CC2)CC1 [Olaparib] (first compound max 3 µM, partner max 3 µM) stands at 0.316

For reference, reported combination Emax for C[C@@H](c1ccc2nccn2c1)n1nnc2ncc(-c3cnn(C)c3)nc21 [Savolitinib] + CC1(C)CCC(CN2CCN(c3ccc(C(=O)NS(=O)(=O)c4ccc(NCC5CCOCC5)c([N+](=O)[O-])c4)c(Oc4cnc5[nH]ccc5c4)c3)CC2)=C(c2ccc(Cl)cc2)C1 [Venetoclax] (first compound max 1 µM, 7x7, partner max 1 µM) stands at 0.0706

For reference, reported combination Emax for CC1(C)CCC(CN2CCN(c3ccc(C(=O)NS(=O)(=O)c4ccc(NCC5CCOCC5)c([N+](=O)[O-])c4)c(Oc4cnc5[nH]ccc5c4)c3)CC2)=C(c2ccc(Cl)cc2)C1 [Venetoclax] + Cn1cnc2c(F)c(Nc3ccc(Br)cc3Cl)c(C(=O)NOCCO)cc21 [Selumetinib] (first compound max 1 µM, 7x7, partner max 3 µM) stands at 0.153

For reference, reported combination Emax for COc1nnc2ccc(N3CCC(c4ccc(OCCN5CCN(C)C(=O)[C@H]5C)cc4)CC3)nn12 [AZD5153] + CC1(C)CCC(CN2CCN(c3ccc(C(=O)NS(=O)(=O)c4ccc(NCC5CCOCC5)c([N+](=O)[O-])c4)c(Oc4cnc5[nH]ccc5c4)c3)CC2)=C(c2ccc(Cl)cc2)C1 [Venetoclax] (first compound max 1 µM, 7x7, partner max 1 µM) stands at 0.661

For reference, reported combination Emax for CC1(C)CCC(CN2CCN(c3ccc(C(=O)NS(=O)(=O)c4ccc(NCC5CCOCC5)c([N+](=O)[O-])c4)c(Oc4cnc5[nH]ccc5c4)c3)CC2)=C(c2ccc(Cl)cc2)C1 [Venetoclax] + COc1cc(Nc2ncc3c(n2)-c2ccc(Cl)cc2C(c2c(F)cccc2OC)=NC3)ccc1C(=O)O [Alisertib] (first compound max 1 µM, 7x7, partner max 10 µM) stands at 0.487

====

Tested on: Mewo (Melanoma);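 further: after 72 h of two-drug dosing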
Assay: Bliss excess, mean over the matrix (fraction); higher = more synergy
Quick reference for Bliss excess among some molecules
Respond using a number only.

// worked examples, Bliss excess included
{"Molecule": "N#Cc1cnc(Nc2cc(NC[C@H]3CNCCO3)c(C(F)(F)F)cn2)cn1 [SRA737] + CCc1c2c(nc3ccc(O)cc13)-c1cc3c(c(=O)n1C2)COC(=O)[C@]3(O)CC [SN-38] (first compound max 10 µM, 7x7, partner max 0.3 µM)", "Observed Value": 0.022}
{"Molecule": "CN(CCO)CC[C@H](CSc1ccccc1)Nc1ccc(S(=O)(=O)NC(=O)c2ccc(N3CCC([C@@H](O)c4ccccc4-c4ccc(Cl)cc4)CC3)cc2)cc1S(=O)(=O)C(F)(F)F [AZD4320] + C1CN(CCC1(C(=O)N[C@@H](CCO)C2=CC=C(C=C2)Cl)N)C3=NC=NC4=C3C=CN4 [Capivasertib] (first compound max 1 µM, 7x7, partner max 3 µM)", "Observed Value": -0.0262}

// switching to the query molecule
For reference, reported Bliss excess for NC1(C(=O)N[C@@H](CCO)c2ccc(Cl)cc2)CCN(c2ncnc3[nH]ccc23)CC1 [Capivasertib] + COc1nnc2ccc(N3CCC(c4ccc(OCCN5CCN(C)C(=O)[C@H]5C)cc4)CC3)nn12 [AZD5153] (first compound max 10 µM, 7x7, partner max 1 µM) stands at -0.0532
